- experimental-target: P99 ampC (Enterobacter cloacae, UniProt P05364)
- Sequence (P05364 21-381): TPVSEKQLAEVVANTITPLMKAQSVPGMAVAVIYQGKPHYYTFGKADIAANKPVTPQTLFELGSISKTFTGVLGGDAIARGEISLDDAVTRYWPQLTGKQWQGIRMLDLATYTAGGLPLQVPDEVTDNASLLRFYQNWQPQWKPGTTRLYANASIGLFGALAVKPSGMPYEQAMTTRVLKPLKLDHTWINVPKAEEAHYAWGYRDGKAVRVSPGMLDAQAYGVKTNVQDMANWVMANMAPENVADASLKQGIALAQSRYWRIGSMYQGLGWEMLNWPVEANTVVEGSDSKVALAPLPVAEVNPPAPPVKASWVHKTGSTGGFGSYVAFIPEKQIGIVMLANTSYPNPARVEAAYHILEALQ
observation-type: IC50 (nM)

compound_structure_string=N#C[C@@H]1CC[C@@H]2CN1C(=O)N2OC(F)(F)C(=O)[O-].[Na+] numeric_value=54
compound_structure_string=NC(=O)[C@@H]1CC[C@@H]2CN1C(=O)N2OC(F)(F)C(=O)[O-].[Na+] numeric_value=550

----------
- Tested on: Escherichia coli (ECO) isolates
- protocol-summary: MIC of compounds alone and combined with antibacterials, broth microdilution (CLSI)
- Format: cell-based
- measurement-setup: ECO 260096; AF1 @ 4 μg/mL
observation-type: MIC ATB in combination

molecule="COCC1=C(C(=O)O)N2C(=O)[C@@H](NC(=O)/C(=N\\OC)c3csc(N)n3)[C@H]2SC1 [POD, Cefpodoxime]" result="<=0.25 μg/mL"
molecule="CO/N=C(\\C(=O)N[C@@H]1C(=O)N2C(C(=O)O)=C(COC(N)=O)CS[C@H]12)c1ccco1 [FUR, Cefuroxime]" result="4 µg/mL"
molecule="C=CC1=C(C(=O)O)N2C(=O)[C@@H](NC(=O)/C(=N\\O)c3csc(N)n3)[C@H]2SC1 [CDR, Cefdinir]" result="<=0.25 μg/mL"
molecule="CC(C)(O/N=C(\\C(=O)N[C@@H]1C(=O)N2C(C(=O)[O-])=C(C[n+]3ccccc3)CS[C@H]12)c1csc(N)n1)C(=O)O [CAZ, Ceftazidime]" result="<=0.25 μg/mL"
molecule="C=CC1=C(C(=O)O)N2C(=O)[C@@H](NC(=O)/C(=N\\OCC(=O)O)c3csc(N)n3)[C@H]2SC1 [FIX, Cefixime]" result="<=0.25 μg/mL"
